- Method summary: Log P by HPLC on reversed phase columns (EEC directive 79/831 Annex V.A8)
- Format: physicochemical
This listing pairs compounds with measured LogP [b].

Solved cases (4 shown):
C=CCOc1cc(F)c(Nc2c(-c3ccc(F)cc3Cl)c(C)nn2C)cc1F ... 3.66^[b];
C#CCOc1cc(F)cc(F)c1Nc1c(-c2ccc(F)cc2Br)c(C)nn1C ... 3.32^[b]
C#CCOc1cc(F)c(Nc2c(-c3ccc(F)cc3Cl)c(C)nn2C)cc1F ... 3.23^[b];
C#CCOc1cc(F)cc(F)c1Nc1c(-c2ccc(Cl)nc2)c(C)nn1C ... 2.63^[b]

Enquiry: // query LogP [b] value for entry C#CCOc1ccc(F)c(Nc2c(-c3ccc(F)cc3Cl)c(C)nn2C)c1
Return: 3.27^[b];

Enquiry: What LogP [b] value was documented for this compound, C#CCOc1cc(F)c(Nc2c(-c3ccc(Cl)nc3)c(C)nn2C)c(F)c1 ?
Return: 2.54^[b]

Enquiry: I'd like to know its LogP [b]. The compound in question is C=CCOc1ccc(F)c(Nc2c(-c3ccc(F)cc3Cl)c(C)nn2C)c1
Return: 3.73^[b];

Enquiry: Look up LogP [b]: C#CCOc1ccc(N=C=S)c(Cl)c1
Return: 3.96

Enquiry: Please give the measured LogP [b] for this compound: C#CCOc1ccc(Nc2c(-c3ccc(Cl)cc3Cl)c(C)nn2C)c(Cl)c1
Return: 4.06^[b];

* * *

- Method summary: Log P by HPLC on reversed phase columns (EEC directive 79/831 Annex V.A8)
- Assay type: physicochemical
Readout label: LogP [a]

C#CCOc1cc(F)cc(F)c1Nc1c(-c2ccc(Cl)cc2Cl)c(C)nn1C [Example I-05] ... 3.69^[a]

Enquiry: Entry under review: C=CCOc1cc(C)ccc1Nc1c(-c2ccc(F)cc2Cl)c(C)nn1C [Example I-52] . Reported LogP [a]?
Return: 4.32^[a]

* * *

- Method summary: Log P by HPLC on reversed phase columns (EEC directive 79/831 Annex V.A8)
- Assay type: physicochemical
Parameter LogP [b]: see the listing below.

Enquiry: Name the recorded LogP [b] for C=CCOc1cc(F)c(Nc2c(-c3ccc(Cl)nc3)c(C)nn2C)c(F)c1 [Example I-21] .
Return: 2.92^[b]

Enquiry: Query (compound): C=CCOc1ccc(N=C=S)cc1 [Z-ii-05] ; field requested: LogP [b]
Return: 4.09

Enquiry: Can you look up the measured LogP [b] of C=CCOc1ccc(Nc2c(-c3ccc(F)cc3Cl)c(C)nn2C)cc1 [Example I-30] for me?
Return: 3.52^[b]

* * *

- Method summary: Log P by HPLC on reversed phase columns (EEC directive 79/831 Annex V.A8)
- Type: physicochemical
Readout label: LogP [a]

C#CCOc1cc(F)cc(F)c1Nc1c(-c2ccc(F)cc2F)c(C)nn1C ... 3.07^[a]

Shifting focus to the compound that follows.
Enquiry: Fill blank: measured LogP [a] of the compound C#CCOc1cc(F)cc(F)c1Nc1c(-c2c(F)cc(OC)cc2F)c(C)nn1C is ____.
Return: 3.00^[a]

* * *

- Method summary: Log P by HPLC on reversed phase columns (EEC directive 79/831 Annex V.A8)
- Format: physicochemical
Reported LogP [a] values for the following molecules.

Observe how each entry below is paired with its result.
C#CCOc1cc(C)ccc1Nc1c(-c2ccc(F)cc2Cl)c(C)nn1C ... 3.83^[a]
C#CCOc1cc(F)c(Nc2c(-c3ccc(Cl)cc3Cl)c(C)nn2C)cc1F ... 3.70^[a];
C=CCOc1cc(F)c(Nc2c(-c3ccc(OC)cc3F)c(C)nn2C)c(F)c1 ... 3.11^[a]
C#CCOc1cc(F)c(N=C=S)c(F)c1 ... 3.86^[a]
C#CCOc1cc(F)cc(F)c1Nc1c(-c2ccc(F)cc2Br)c(C)nn1C ... 3.33^[a];
C#CCOc1cc(F)c(Nc2c(-c3ccc(OC)cc3F)c(C)nn2C)c(F)c1 ... 2.74^[a]

Enquiry: // query LogP [a] value for entry C=CCOc1cc(F)c(Nc2c(-c3ccc(Cl)nc3)c(C)nn2C)c(F)c1
Return: 2.95^[a];

Enquiry: Could you tell me which LogP [a] is on file for C=CCOc1ccc(F)cc1Nc1c(-c2ccc(F)cc2Cl)c(C)nn1C ?
Return: 4.01^[a]

Enquiry: If you can, please state the reported LogP [a] value of C#CCOc1ccccc1Nc1c(-c2ccc(Cl)cc2Cl)c(C)nn1C .
Return: 3.96^[a]

Enquiry: Any idea what its LogP [a] is? The molecule is C=CCOc1cc(F)c(Nc2c(-c3ccc(F)cc3Cl)c(C)nn2C)cc1F
Return: 3.74^[a];
